Target: CTLA4 (human)
Sequence (chain, as listed by the source): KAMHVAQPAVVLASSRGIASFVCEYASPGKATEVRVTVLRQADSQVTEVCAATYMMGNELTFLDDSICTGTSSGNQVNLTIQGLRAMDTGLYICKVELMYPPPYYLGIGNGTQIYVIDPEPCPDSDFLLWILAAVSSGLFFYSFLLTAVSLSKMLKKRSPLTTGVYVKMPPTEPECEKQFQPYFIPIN
Assay: flow cytometry, CHO cells stably expressing CTLA4
Quick reference for MFI at 33.3 nM among some binders
Write it as a number; the unit MFI goes unstated.

CD80 variant E35D/M47V/A71G/L85M/L97Q IgV-Fc (Fc fusion) VIHVTKEVKEVATLSCGHNVSVEELAQTRIYWQKDKKMVLTMMSGDVNIWPEYKNRTIFDITNNLSIVILGLRPSDEGTYECVVMKYEKDAFKREHQAEVT	239000

Q) Respond only with MFI at 33.3 nM recorded for CD80 variant A26E/Q33L/E35D/M47L IgV-Fc (Fc fusion) VIHVTKEVKEVATLSCGHNVSVEELEQTRIYWLKDKKMVLTMMSGDLNIWPEYKNRTIFDITNNLSIVILALRPSDEGTYECVVLKYEKDAFKREHLAEVT
A) 1320

Q) Respond only with MFI at 33.3 nM recorded for CD80 variant A26E/Q33R/E35D/M47L/L85Q IgV-Fc (Fc fusion) VIHVTKEVKEVATLSCGHNVSVEELEQTRIYWRKDKKMVLTMMSGDLNIWPEYKNRTIFDITNNLSIVILALRPSDEGTYECVVQKYEKDAFKREHLAEVT
A) 1280
